These entries and their values trace back to patent US5556849A.

Please provide measured ε (molar extinction coefficient) for the entries that follow.
- Assay Overview: Light absorption maxima and molar extinction coefficients
- Type: physicochemical
Answers are plain numbers, in M⁻¹ cm⁻¹.

{"Smiles Representation": "O=S(=O)([O-])c1cccc(P(c2cccc(S(=O)(=O)[O-])c2)c2cccc(S(=O)(=O)[O-])c2)c1.O=S(=O)([O-])c1cccc(P(c2cccc(S(=O)(=O)[O-])c2)c2cccc(S(=O)(=O)[O-])c2)c1.[Na+].[Na+].[Na+].[Na+].[Na+].[Na+].c1ccc2c(c1)C1=NC3=NC(=Nc4c5ccccc5c5[n]4[Ru][n]4c(c6ccccc6c4=N5)=NC2=N1)c1ccccc13", "Unit Descriptor": "M⁻¹ cm⁻¹", "ε (molar extinction coefficient)": 87400}

We next turn to a different molecule, shown below.
Exercise: Tell me the measured ε (molar extinction coefficient) of O=C(O)c1cccnc1.O=C(O)c1cccnc1.c1ccc2c(c1)C1=NC2=Nc2c3ccccc3c3[n]2[Ru][n]2c(c4ccccc4c2=NC2=NC(=N3)c3ccccc32)=N1 , please.
Key: 648000
